Hey, just so you know, these numbers are from ChEMBL document CHEMBL3860077.

experiment: Displacement of [3H]-KAIN from kainic acid receptor in rat cortical membranes by scintillation counting method; type: cell membranes
Items are presented alongside their recorded IC50.

Compound | IC50
N[C@@H](C[C@H]1CC(C(=O)O)=NO1)C(=O)O (racemic) | > 100 µM
N[C@@H](C[C@@H]1CC(C(=O)O)=NO1)C(=O)O (racemic) | > 100 µM

###

biological target: Glutamate NMDA receptor; experiment: Displacement of [3H]-CGP39653 from NMDA receptor in Sprague-Dawley rat brain synaptic membranes after 60 mins by scintillation counting method
pKi: −log10 of the molar value.
pKi reference
Measured parameter: pKi

Compound | Measured parameter | Comparative sign | Observed measurement
N[C@@H](C[C@H]1CC(c2ccccc2C(=O)O)=NO1)C(=O)O (racemic) | pKi | = | 4.66
N[C@@H](C[C@H]1CC(c2cccc(C(=O)O)c2)=NO1)C(=O)O (racemic) | pKi | = | 4.00
N[C@@H](C[C@@H]1CC(c2cccc(C(=O)O)c2)=NO1)C(=O)O (racemic) | pKi | = | 4.66
N[C@@H](C[C@@H]1CC(CCC(=O)O)=NO1)C(=O)O (racemic) | pKi | = | 4.89
N[C@@H](C[C@H]1CC(CCC(=O)O)=NO1)C(=O)O (racemic) | pKi | < | 4.00
N[C@@H](C[C@@H]1CC(c2ccccc2C(=O)O)=NO1)C(=O)O (racemic) | pKi | = | 5.44
N[C@@H](C[C@@H]1CC(c2ccc(C(=O)O)cc2)=NO1)C(=O)O (racemic) | pKi | < | 4.00
N[C@@H](C[C@H]1CC(/C=C/C(=O)O)=NO1)C(=O)O (racemic) | pKi | = | 4.17
N[C@@H](C[C@@H]1CC(/C=C/C(=O)O)=NO1)C(=O)O (racemic) | pKi | < | 4.00
N[C@@H](C[C@H]1CC(c2ccc(C(=O)O)cc2)=NO1)C(=O)O (racemic) | pKi | < | 4.00

###

test: Displacement of [3H]-AMPA from AMPA receptor in Sprague-Dawley rat brain synaptic membranes after 30 mins by scintillation counting method

Compound | IC50
N[C@@H](C[C@@H]1CC(/C=C/C(=O)O)=NO1)C(=O)O (racemic) | > 100 µM
N[C@@H](C[C@@H]1CC(CCC(=O)O)=NO1)C(=O)O (racemic) | > 100 µM
N[C@@H](C[C@@H]1CC(c2ccccc2C(=O)O)=NO1)C(=O)O (racemic) | > 100 µM
N[C@@H](C[C@H]1CC(c2ccccc2C(=O)O)=NO1)C(=O)O (racemic) | > 100 µM
N[C@@H](C[C@@H]1CC(c2cccc(C(=O)O)c2)=NO1)C(=O)O (racemic) | > 100 µM
N[C@@H](C[C@H]1CC(c2ccc(C(=O)O)cc2)=NO1)C(=O)O (racemic) | > 100 µM
N[C@@H](C[C@H]1CC(/C=C/C(=O)O)=NO1)C(=O)O (racemic) | > 100 µM
N[C@@H](C[C@H]1CC(c2cccc(C(=O)O)c2)=NO1)C(=O)O (racemic) | > 100 µM
N[C@@H](C[C@@H]1CC(c2ccc(C(=O)O)cc2)=NO1)C(=O)O (racemic) | > 100 µM
N[C@@H](C[C@H]1CC(CCC(=O)O)=NO1)C(=O)O (racemic) | > 100 µM
